meta.source: patent US9580396B2

The next entries give measured Ki for purified human autoBACE-2 (Homo sapiens (Human), UniProt Q9Y5Z0).

{"structureSmiles": "COc1cnc(C(=O)Nc2ccc3c(c2)[C@]2(CCC3)CS(=O)(=O)N(C)C(=N)N2)c(C)n1", "Ki [nM]": 123}
{"structureSmiles": "CN1C(=N)N[C@@]2(CCOc3ccc(NC(=O)c4ccc(OC(F)F)cn4)cc32)CS1(=O)=O", "Ki [nM]": 166}
{"structureSmiles": "CN1C(=N)N[C@@]2(CCOc3ccc(NC(=O)c4ccc(OC(F)(F)F)cn4)cc32)CS1(=O)=O", "Ki [nM]": 261}
{"structureSmiles": "Cc1nc(C(=O)Nc2ccc3c(c2)[C@]2(CCO3)CS(=O)(=O)N(C)C(=N)N2)co1", "Ki [nM]": 20}
{"structureSmiles": "CN1C(=N)N[C@@]2(CCOc3ccc(NC(=O)c4cnc(C(F)(F)F)cn4)cc32)CS1(=O)=O", "Ki [nM]": 1150}
{"structureSmiles": "CN1C(=N)N[C@@]2(CCCc3ccc(NC(=O)C(F)F)cc32)CS1(=O)=O", "Ki [nM]": 515}
{"structureSmiles": "C#CCOc1ccc(C(=O)Nc2ccc3c(c2)[C@]2(CCO3)CS(=O)(=O)N(C)C(=N)N2)nc1", "Ki [nM]": 313}
{"structureSmiles": "Cc1cc(C#N)cnc1C(=O)Nc1ccc2c(c1)[C@]1(CCC2)CS(=O)(=O)N(C)C(=N)N1", "Ki [nM]": 17}
{"structureSmiles": "CN1C(=N)N[C@@]2(CCOc3ccc(NC(=O)c4cnc(OCC(F)(F)F)cn4)cc32)CS1(=O)=O", "Ki [nM]": 699}
{"structureSmiles": "COc1cnc(C(=O)Nc2ccc3c(c2)[C@]2(CCO3)CS(=O)(=O)N(C)C(=N)N2)c(C)c1", "Ki [nM]": 29}
{"structureSmiles": "CN1C(=N)N[C@@]2(CCOc3ccc(NC(=O)c4ccc(C(F)(F)F)cn4)cc32)CS1(=O)=O", "Ki [nM]": 283}
{"structureSmiles": "CN1C(=N)N[C@@]2(CCOc3ccc(NC(=O)c4ncc(C(F)(F)F)cn4)cc32)CS1(=O)=O", "Ki [nM]": 780}
{"structureSmiles": "COc1cnc(C(=O)Nc2ccc3c(c2)[C@]2(CCO3)CS(=O)(=O)N(C)C(=N)N2)cn1", "Ki [nM]": 254}
{"structureSmiles": "CN1C(=N)N[C@@]2(CCCc3ccc(NC(=O)c4ccc(OC(F)(F)F)cn4)cc32)CS1(=O)=O", "Ki [nM]": 219}
{"structureSmiles": "CN1C(=N)N[C@@]2(CCCc3ccc(NC(=O)c4ccc(OCF)cn4)cc32)CS1(=O)=O", "Ki [nM]": 33}
{"structureSmiles": "CN1C(=N)N[C@@]2(CCOc3ccc(NC(=O)c4ccn(C(F)F)n4)cc32)CS1(=O)=O", "Ki [nM]": 3}
{"structureSmiles": "CN1C(=N)N[C@@]2(CCCc3ccc(NC(=O)c4ccc(C#N)cn4)cc32)CS1(=O)=O", "Ki [nM]": 44}
{"structureSmiles": "COc1cnc(C(=O)Nc2ccc3c(c2)[C@]2(CCC3)CS(=O)(=O)N(C)C(=N)N2)cn1", "Ki [nM]": 177}
{"structureSmiles": "CN1C(=N)N[C@@]2(CCCc3ccc(NC(=O)c4ccc(F)cn4)cc32)CS1(=O)=O", "Ki [nM]": 28}
{"structureSmiles": "CN1C(=N)N[C@@]2(CCOc3ccc(NC(=O)c4cnsn4)cc32)CS1(=O)=O", "Ki [nM]": 46}
{"structureSmiles": "COCC(=O)Nc1ccc2c(c1)[C@]1(CCC2)CS(=O)(=O)N(C)C(=N)N1", "Ki [nM]": 260}
{"structureSmiles": "Cc1cc(C#N)cnc1C(=O)Nc1ccc2c(c1)[C@]1(CCO2)CS(=O)(=O)N(C)C(=N)N1", "Ki [nM]": 26}
{"structureSmiles": "CN1C(=N)N[C@@]2(CCCc3ccc(NC(=O)c4cnsn4)cc32)CS1(=O)=O", "Ki [nM]": 56}
{"structureSmiles": "COc1ccc(C(=O)Nc2ccc3c(c2)[C@]2(CCC3)CS(=O)(=O)N(C)C(=N)N2)nc1", "Ki [nM]": 67}
{"structureSmiles": "C#CCOc1ccc(C(=O)Nc2ccc3c(c2)[C@]2(CCC3)CS(=O)(=O)N(C)C(=N)N2)nc1", "Ki [nM]": 221}
{"structureSmiles": "Cc1nc(C(=O)Nc2ccc3c(c2)[C@]2(CCC3)CS(=O)(=O)N(C)C(=N)N2)no1", "Ki [nM]": 16}
{"structureSmiles": "CN1C(=N)N[C@@]2(CCCc3ccc(NC(=O)c4ccc(C(F)(F)F)cn4)cc32)CS1(=O)=O", "Ki [nM]": 171}
{"structureSmiles": "CN1C(=N)N[C@@]2(CCOc3ccc(NC(=O)c4ccc(Cl)cn4)cc32)CS1(=O)=O", "Ki [nM]": 17}
{"structureSmiles": "COc1cnc(C(=O)Nc2ccc3c(c2)[C@]2(CCO3)CS(=O)(=O)N(C)C(=N)N2)c(C)n1", "Ki [nM]": 160}
{"structureSmiles": "Cc1nc(C(=O)Nc2ccc3c(c2)[C@]2(CCC3)CS(=O)(=O)N(C)C(=N)N2)co1", "Ki [nM]": 11}
{"structureSmiles": "CN1C(=N)N[C@@]2(CCCc3ccc(NC(=O)c4ncc(Cl)cc4F)cc32)CS1(=O)=O", "Ki [nM]": 8}
